target-desc: ROCK1 (Homo sapiens, UniProt Q13464)
Construct: purchased Invitrogen PV3691
Sequence (Q13464 1-535 limits assumed): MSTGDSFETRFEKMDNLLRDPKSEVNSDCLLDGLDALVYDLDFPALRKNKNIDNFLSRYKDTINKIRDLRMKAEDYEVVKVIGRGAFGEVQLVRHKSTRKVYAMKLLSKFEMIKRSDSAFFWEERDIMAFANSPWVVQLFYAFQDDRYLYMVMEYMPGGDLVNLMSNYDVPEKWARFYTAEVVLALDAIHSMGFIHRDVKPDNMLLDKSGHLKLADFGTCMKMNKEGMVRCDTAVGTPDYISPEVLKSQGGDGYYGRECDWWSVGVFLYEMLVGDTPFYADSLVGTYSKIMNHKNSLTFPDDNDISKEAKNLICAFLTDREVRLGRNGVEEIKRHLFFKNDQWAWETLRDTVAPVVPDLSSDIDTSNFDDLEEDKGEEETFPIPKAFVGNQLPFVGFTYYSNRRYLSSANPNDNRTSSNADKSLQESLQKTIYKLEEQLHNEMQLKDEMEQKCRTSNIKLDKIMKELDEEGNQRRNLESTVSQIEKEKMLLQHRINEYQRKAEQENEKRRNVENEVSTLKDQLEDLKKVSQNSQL
experimental-protocol: Kinase IC50 assay, HTRF kinEASE STK S2 kit, ROCK1
Assay type: biochemical
assay-conditions: ATP 1.5 μM, 2.5 ng/well enzyme, 120 min
Method: Kinase IC50 assay was performed using the kinase assay kit HTRF kinEASE STK S2 kit (Cat #62ST2PEC, Cisbio). Kinases ROCK1 (Cat #PV3691) and ROCK2 (Cat #PV3759) were purchased from Invitrogen. […] The inhibition rate in each well was calculated from the fluorescence intensity values of each well: ER Emission Ratio, Emission light ratio=fluorescence intensity at 665 nm/fluorescence intensity at 615 nm; […]
measured-parameter: IC50

Consider the worked cases shown below.
molecule	IC50
O=C(c1ccc(C#Cc2nccc(Nc3ccc(-c4cn[nH]c4)cc3)n2)nc1)N1CC(F)(F)C1 [Compound A21]	> 100 µM
Cc1cc(C(=O)N2CC(F)(F)C2)n(C)c1C#Cc1ncc(F)c(Nc2cnc(-c3cn[nH]c3)c(F)c2)n1 [Compound A41]	> 100 µM

Lookup: Consider the molecule Cc1cc(C(=O)N2CC(F)(F)C2)n(C)c1C#Cc1ncc(F)c(Nc2ccc(-c3cn[nH]c3C)cc2)n1 [Compound A44] and give its measured IC50.
Found: > 100 µM

Lookup: Any idea what IC50 was measured for COC1CN(C(=O)c2cc(C)c(C#Cc3ncc(F)c(Nc4cc(F)c(-c5cn[nH]c5)cc4F)n3)n2C)C1 [Compound A57] ?
Found: > 100 µM

Lookup: Could you share which IC50 value was measured for O=C(c1ccc(C#Cc2nccc(Nc3ccc(-c4cn[nH]c4)cc3)n2)cc1)N1CC(F)(F)C1 [Compound A28] ?
Found: > 100 µM

Lookup: Quick one: IC50 for Cc1n[nH]c(C)c1-c1ccc(Nc2ccnc(C#Cc3ccc(C(=O)N4CC(F)(F)C4)n3C)n2)cc1 [Compound A14] ?
Found: > 100 µM

Lookup: Sample Cn1c(C#Cc2ncc(F)c(Nc3ccc4c(=O)[nH]ccc4c3)n2)ccc1C(=O)N1CC(F)(F)C1 [Compound A27] — what was its IC50?
Found: > 100 µM

Lookup: Tell me the measured IC50 of Cn1c(C#Cc2ncc(C#N)c(Nc3ccc(-c4cn[nH]c4)cc3)n2)ccc1C(=O)N1CC(F)(F)C1 [Compound A8] , please.
Found: > 100 µM

---

target-desc: ROCK2 (Homo sapiens, UniProt O75116)
Construct: purchased Invitrogen PV3759
Sequence (O75116 5-554 limits assumed): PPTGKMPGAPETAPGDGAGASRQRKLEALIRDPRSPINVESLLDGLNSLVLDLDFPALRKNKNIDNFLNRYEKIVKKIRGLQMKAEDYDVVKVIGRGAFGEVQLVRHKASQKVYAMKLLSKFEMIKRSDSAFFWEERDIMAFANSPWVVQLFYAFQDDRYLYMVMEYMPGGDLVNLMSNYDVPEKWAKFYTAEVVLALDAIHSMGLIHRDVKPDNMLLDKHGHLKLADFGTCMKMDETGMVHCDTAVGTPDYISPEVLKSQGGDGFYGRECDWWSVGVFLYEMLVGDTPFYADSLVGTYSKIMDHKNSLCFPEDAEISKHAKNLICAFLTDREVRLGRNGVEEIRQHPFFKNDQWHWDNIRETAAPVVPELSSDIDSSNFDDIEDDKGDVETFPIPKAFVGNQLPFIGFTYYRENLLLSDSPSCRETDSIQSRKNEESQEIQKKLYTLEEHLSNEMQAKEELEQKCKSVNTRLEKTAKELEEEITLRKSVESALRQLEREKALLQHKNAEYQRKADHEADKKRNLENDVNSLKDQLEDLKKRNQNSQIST
experimental-protocol: Kinase IC50 assay, HTRF kinEASE STK S2 kit, ROCK2
Format: biochemical
assay-conditions: ATP 1 μM, 2.5 ng/well enzyme, 120 min
measured-parameter: IC50 (µM)

Cc1cc(C(=O)N2CC(F)(F)C2)n(C)c1C#Cc1ncc(F)c(Nc2cc(F)c(-c3cn[nH]c3C)c(F)c2)n1 0.0515
CN1Cc2nc(C#Cc3ccc(C(=O)N4CC(F)(F)C4)n3C)nc(Nc3ccc(-c4cn[nH]c4)cc3)c2C1 0.0867
Cn1c(C(=O)N2CC(F)(F)C2)cc(C2CC2)c1C#Cc1ncc(F)c(Nc2cc(F)c(-c3cn[nH]c3)cc2F)n1 0.0192
Cc1cc(C(=O)N2CC(F)(F)C2)n(C)c1C#Cc1ncc(F)c(Nc2cnc(-c3cn[nH]c3)c(F)c2)n1 0.0724

A. Cc1cc(C(=O)N2CC(F)(F)C2)n(C)c1C#Cc1ncc(F)c(Nc2cc(F)c(-c3cn[nH]c3C)cc2F)n1
B. Cc1cc(C(=O)N2CC(F)(F)C2)n(C)c1C#Cc1ncc(F)c(Nc2ccc(-c3cn[nH]c3)c(F)c2)n1
Lookup: Given the listed items, does A or B have the lesser reported IC50? Choose, then provide that item's label.
Found: B

---

target-desc: ROCK1 (Homo sapiens, UniProt Q13464)
Construct: purchased Invitrogen PV3691
experimental-protocol: Kinase IC50 assay, HTRF kinEASE STK S2 kit, ROCK1
Assay type: biochemical
assay-conditions: ATP 1.5 μM, 2.5 ng/well enzyme, 120 min
measured-parameter: IC50 (µM)

Cc1cc(C(=O)N2CC(F)(F)C2)n(C)c1C#Cc1nc2c(c(Nc3cc(F)c(-c4cn[nH]c4)c(F)c3)n1)COC2 0.073
Cc1c(Nc2ccnc(C#Cc3ccc(C(=O)N4CC(F)(F)C4)n3C)n2)ccc2[nH]ncc12 40.9
Cc1nc(C#Cc2ccc(C(=O)N3CC(F)(F)C3)n2C)nc(Nc2ccc(-c3cn[nH]c3)cc2)c1C 35.2
Cc1cc(C(=O)N2CC(F)(F)C2)n(C)c1C#Cc1ncc(F)c(Nc2cc(F)c(-c3cn[nH]c3C)c(F)c2)n1 20.6
Cn1c(C(=O)N2CC(F)(F)C2)cc(C2CC2)c1C#Cc1ncc(F)c(Nc2cc(F)c(-c3cn[nH]c3)cc2F)n1 64

P. Cn1nc(C#Cc2nccc(Nc3ccc(-c4cn[nH]c4)cc3)n2)cc1C(=O)N1CC(F)(F)C1
Q. Cc1cc(Nc2ccnc(C#Cc3ccc(C(=O)N4CC(F)(F)C4)n3C)n2)ccc1-c1cn[nH]c1
Lookup: Looking only at measured IC50, which entry is lower, P or Q ? The response must carry the label of the picked entry.
Found: Q
(Q: 32.3 µM, P: 50.3 µM)

---

target-desc: ROCK1 (Homo sapiens)
Construct: purchased Invitrogen PV3691
experimental-protocol: Kinase IC50 assay, HTRF kinEASE STK S2 kit, ROCK1
Format: biochemical
assay-conditions: ATP 1.5 μM, 2.5 ng/well enzyme, 120 min
Procedure: Kinase IC50 assay was performed using the kinase assay kit HTRF kinEASE STK S2 kit (Cat #62ST2PEC, Cisbio). Kinases ROCK1 (Cat #PV3691) and ROCK2 (Cat #PV3759) were purchased from Invitrogen. […] The inhibition rate in each well was calculated from the fluorescence intensity values of each well: ER Emission Ratio, Emission light ratio=fluorescence intensity at 665 nm/fluorescence intensity at 615 nm; […]
Listed here are molecules together with their documented IC50.

Below, 5 molecules whose answers are already recorded.
molecule	IC50
Cc1cc(C(=O)N2CC(F)(F)C2)n(C)c1C#Cc1ncc(F)c(Nc2cc(F)c(-c3cn[nH]c3C)cc2F)n1 [Compound A47]	> 100 µM
Cc1cc(C(=O)N2CC(O)C2)n(C)c1C#Cc1ncc(F)c(Nc2cc(F)c(-c3cn[nH]c3)cc2F)n1 [Compound A56]	> 100 µM
Cn1c(C#Cc2nc3c(c(Nc4ccc(-c5cn[nH]c5)cc4)n2)COC3)ccc1C(=O)N1CC(F)(F)C1 [Compound A10]	> 100 µM
Cn1c(C#Cc2ncc(F)c(Nc3ccc(-c4c[nH]nc4F)cc3)n2)ccc1C(=O)N1CC(F)(F)C1 [Compound A15]	> 100 µM
Cc1cc(Nc2ccc(-c3cn[nH]c3)cc2)nc(C#Cc2ccc(C(=O)N3CC(F)(F)C3)n2C)n1 [Compound A5]	> 100 µM

Lookup: // lookup IC50 for Cc1cc(C(=O)N2CC(F)(F)C2)n(C)c1C#Cc1ncc(F)c(Nc2cc(F)c(-c3cn[nH]c3)cc2F)n1 [Compound A49]
Found: 37.4 µM
